tested on: ECHCG; experiment: Pre-emergence herbicidal action against ECHCG; format: in vivo, Echinochloa crus-galli; conditions: Echinochloa crus-galli, 504 h, 80 g/ha

- Test Smiles: "CCNC(=O)c1c(C(F)(F)F)ccc(C(=O)Nc2nnnn2CC)c1Br"
  Study Target: "ECHCG"
  pest or weed control at 80 g/ha (%): 100
- Test Smiles: "CCNC(=O)c1c(Cl)ccc(C(=O)Nc2nnnn2C)c1Br"
  Study Target: "ECHCG"
  pest or weed control at 80 g/ha (%): 100
- Test Smiles: "CNC(=O)c1c(C(F)(F)F)ccc(C(=O)Nc2nnc(C)o2)c1Cl"
  Study Target: "ECHCG"
  pest or weed control at 80 g/ha (%): 100
- Test Smiles: "CCCNC(=O)c1c(C(F)(F)F)ccc(C(=O)Nc2nnnn2C)c1Cl"
  Study Target: "ECHCG"
  pest or weed control at 80 g/ha (%): 90
- Test Smiles: "CCNC(=O)c1c(C(F)(F)F)ccc(C(=O)Nc2nnnn2CC)c1C1CC1"
  Study Target: "ECHCG"
  pest or weed control at 80 g/ha (%): 100

====

system: MATIN; assay: Pre-emergence herbicidal action against MATIN; type: in vivo, Matricaria inodora; details: dosage 20 g/ha

- Compound: "CCn1nnnc1NC(=O)c1ccc(C(F)F)c(C(=O)NC(C)C2CC2)c1Br (stereo not drawn)"
  Study Target: "MATIN"
  Units Of Measure: "%"
  Pre-emergence action against MATIN in %: 100
- Compound: "CCc1c(C(=O)Nc2nnnn2C)ccc(C(F)(F)F)c1C(=O)NCC1CC1"
  Study Target: "MATIN"
  Units Of Measure: "%"
  Pre-emergence action against MATIN in %: 100
- Compound: "CC(NC(=O)c1c(C(F)(F)F)ccc(C(=O)Nc2nnnn2C)c1C1CC1)C1CC1 (stereo not drawn)"
  Study Target: "MATIN"
  Units Of Measure: "%"
  Pre-emergence action against MATIN in %: 100
- Compound: "CCn1nnnc1NC(=O)c1ccc(OC)c(C(=O)NC)c1Cl"
  Study Target: "MATIN"
  Units Of Measure: "%"
  Pre-emergence action against MATIN in %: 90
- Compound: "Cn1nnnc1NC(=O)c1ccc(C(F)(F)F)c(C(=O)NCC(F)F)c1Br"
  Study Target: "MATIN"
  Units Of Measure: "%"
  Pre-emergence action against MATIN in %: 90
- Compound: "CSc1c(C(=O)Nc2nnnn2C)ccc(C(F)F)c1C(=O)NCC(F)F"
  Study Target: "MATIN"
  Units Of Measure: "%"
  Pre-emergence action against MATIN in %: 100
- Compound: "CCn1nnnc1NC(=O)c1ccc(C(F)(F)F)c(C(=O)NCC(F)F)c1C1CC1"
  Study Target: "MATIN"
  Units Of Measure: "%"
  Pre-emergence action against MATIN in %: 90
- Compound: "Cc1nnc(NC(=O)c2ccc(C(F)F)c(C(=O)NC3CC3)c2C)o1"
  Study Target: "MATIN"
  Units Of Measure: "%"
  Pre-emergence action against MATIN in %: 80
- Compound: "CCn1nnnc1NC(=O)c1ccc(C(F)(F)F)c(C(=O)NC2CCC2)c1C"
  Study Target: "MATIN"
  Units Of Measure: "%"
  Pre-emergence action against MATIN in %: 100
- Compound: "CCn1nnnc1NC(=O)c1ccc(C(F)(F)F)c(C(=O)NCC2CC2)c1SC"
  Study Target: "MATIN"
  Units Of Measure: "%"
  Pre-emergence action against MATIN in %: 100
- Compound: "CCn1nnnc1NC(=O)c1ccc(C(F)F)c(C(=O)NC)c1OC"
  Study Target: "MATIN"
  Units Of Measure: "%"
  Pre-emergence action against MATIN in %: 100
- Compound: "CCn1nnnc1NC(=O)c1ccc(C(F)F)c(C(=O)NCCOC)c1Cl"
  Study Target: "MATIN"
  Units Of Measure: "%"
  Pre-emergence action against MATIN in %: 100
- Compound: "CCCn1nnnc1NC(=O)c1ccc(C(F)(F)F)c(C(=O)NC2CC2)c1CC"
  Study Target: "MATIN"
  Units Of Measure: "%"
  Pre-emergence action against MATIN in %: 90
- Compound: "Cc1nnc(NC(=O)c2ccc(C(F)F)c(C(=O)NC(C)C3CC3)c2Br)o1 (stereo not drawn)"
  Study Target: "MATIN"
  Units Of Measure: "%"
  Pre-emergence action against MATIN in %: 90
- Compound: "Cn1nnnc1NC(=O)c1ccc(C(F)(F)F)c(C(=O)NCC2CC2)c1Cl"
  Study Target: "MATIN"
  Units Of Measure: "%"
  Pre-emergence action against MATIN in %: 100
- Compound: "CCn1nnnc1NC(=O)c1ccc(C(F)(F)F)c(C(=O)NC(C)C2CC2)c1C (stereo not drawn)"
  Study Target: "MATIN"
  Units Of Measure: "%"
  Pre-emergence action against MATIN in %: 100
- Compound: "Cn1nnnc1NC(=O)c1ccc(C(F)(F)F)c(C(=O)NC2CCC2)c1Cl"
  Study Target: "MATIN"
  Units Of Measure: "%"
  Pre-emergence action against MATIN in %: 100
- Compound: "CCn1nnnc1NC(=O)c1ccc(C(F)F)c(C(=O)Nc2ccccc2)c1Cl"
  Study Target: "MATIN"
  Units Of Measure: "%"
  Pre-emergence action against MATIN in %: 80

====

system: AVEFA; experiment: Pre-emergence herbicidal action against AVEFA; format: in vivo, Avena fatua; settings: Avena fatua, pre-emergence, 504 h; 20 g/ha; scored visually after 3 weeks, 100% = plants have died, 0% = like control plants

- Test Smiles: "CNC(=O)c1c(C(F)F)ccc(C(=O)Nc2nnnn2C)c1Br"
  Study Target: "AVEFA"
  pest or weed control at 20 g/ha: "80%"
- Test Smiles: "CCn1nnnc1NC(=O)c1ccc(C(F)F)c(C(=O)NC(C)C)c1C"
  Study Target: "AVEFA"
  pest or weed control at 20 g/ha: "80%"
- Test Smiles: "CCn1nnnc1NC(=O)c1ccc(C(F)(F)F)c(C(=O)NC)c1Cl"
  Study Target: "AVEFA"
  pest or weed control at 20 g/ha: "100%"
- Test Smiles: "CCNC(=O)c1c(C(F)(F)F)ccc(C(=O)Nc2nnnn2CC)c1C"
  Study Target: "AVEFA"
  pest or weed control at 20 g/ha: "80%"
- Test Smiles: "CCNC(=O)c1c(C(F)F)ccc(C(=O)Nc2nnnn2C)c1Br"
  Study Target: "AVEFA"
  pest or weed control at 20 g/ha: "80%"
- Test Smiles: "CCCNC(=O)c1c(C(F)(F)F)ccc(C(=O)Nc2nnnn2CC)c1C"
  Study Target: "AVEFA"
  pest or weed control at 20 g/ha: "90%"
- Test Smiles: "CCn1nnnc1NC(=O)c1ccc(C(F)F)c(C(=O)NC2CC2)c1Cl"
  Study Target: "AVEFA"
  pest or weed control at 20 g/ha: "80%"
- Test Smiles: "CCn1nnnc1NC(=O)c1ccc(C(F)(F)F)c(C(=O)NC(C)C)c1C"
  Study Target: "AVEFA"
  pest or weed control at 20 g/ha: "80%"
- Test Smiles: "Cc1c(C(=O)Nc2nnnn2C)ccc(C(F)F)c1C(=O)NC(C)C"
  Study Target: "AVEFA"
  pest or weed control at 20 g/ha: "80%"

====

Reported Pre-emergence action against ECHCG in % values are given for each entry in this list.
Test system: ECHCG
Experiment: Pre-emergence herbicidal action against ECHCG
Format: in vivo, Echinochloa crus-galli
Conditions: 20 g/ha
Source text: Seeds of monocotyledonous and dicotyledonous weed plants and crop plants are laid out in sandy loam soil in wood-fiber pots and covered with soil. […] The damage to the test plants is scored visually after a test period of 3 weeks by comparison with untreated controls (herbicidal activity in percent (%): 100% activity=the plants have died, 0% activity=like control plants). […]

- Compound: "CNC(=O)c1c(C(F)F)ccc(C(=O)Nc2nnco2)c1Cl"
  Study Target: "ECHCG"
  Units Of Measure: "%"
  Pre-emergence action against ECHCG in %: 80
- Compound: "CC(NC(=O)c1c(C(F)(F)F)ccc(C(=O)Nc2nnnn2C)c1Cl)C1CC1 (centres unmarked)"
  Study Target: "ECHCG"
  Units Of Measure: "%"
  Pre-emergence action against ECHCG in %: 80
- Compound: "CCn1nnnc1NC(=O)c1ccc(C(F)(F)F)c(C(=O)NC(C)C2CC2)c1SC (centres unmarked)"
  Study Target: "ECHCG"
  Units Of Measure: "%"
  Pre-emergence action against ECHCG in %: 80
- Compound: "CCn1nnnc1NC(=O)c1ccc(C(F)(F)F)c(C(=O)NC2CCC2)c1C"
  Study Target: "ECHCG"
  Units Of Measure: "%"
  Pre-emergence action against ECHCG in %: 90
- Compound: "CCn1nnnc1NC(=O)c1ccc(C(F)(F)F)c(C(=O)NCC(F)F)c1Cl"
  Study Target: "ECHCG"
  Units Of Measure: "%"
  Pre-emergence action against ECHCG in %: 80
- Compound: "CCn1nnnc1NC(=O)c1ccc(C(F)F)c(C(=O)NC)c1SC"
  Study Target: "ECHCG"
  Units Of Measure: "%"
  Pre-emergence action against ECHCG in %: 80
- Compound: "CCNC(=O)c1c(C(F)(F)F)ccc(C(=O)Nc2nnnn2CC)c1OC"
  Study Target: "ECHCG"
  Units Of Measure: "%"
  Pre-emergence action against ECHCG in %: 90
- Compound: "CCNC(=O)c1c(C(F)(F)F)ccc(C(=O)Nc2nnco2)c1SC"
  Study Target: "ECHCG"
  Units Of Measure: "%"
  Pre-emergence action against ECHCG in %: 80
